# System: Enterococcus faecalis
# experiment-description: Antimicrobial activity against Enterococcus faecalis assessed as bacterial growth at 2.73 ug/ml after 20 hrs by microtiter plate assay
# Format: functional
Parameter threshold = 10%. Response is Condition met when Activity meets or exceeds it, else Condition not met.

Answered cases to consult:
COc1ccc(Br)cc1C1=C(Br)C(=O)N(CC(C)C)C1(O)Cc1cccc(Cl)c1 (stereo not given) | Condition not met
COc1cccc(/C=C2\OC(=O)C(Br)=C2c2cc(Cl)ccc2OC)c1 | Condition met
COc1cccc(/C=C2\C(c3cc(Cl)ccc3OC)=C(Br)C(=O)N2CC(C)C)c1 | Condition not met
COc1ccc(C)cc1C1=C(Br)C(=O)O/C1=C\c1ccccc1Cl | Condition met
COc1ccc(Br)cc1C1=C(Br)C(=O)N(CC(C)C)/C1=C/c1cccc(Cl)c1 | Condition met

// query Answer whether Activity of COc1ccc(C)cc1C1=C(Br)C(=O)N(CC(C)C)/C1=C\c1cccc(Cl)c1 is greater than or equal to 10%.
// result Condition met

// query Record COc1ccccc1C1=C(Br)C(=O)N(CC(C)C)/C1=C/c1ccc(C(F)(F)F)cc1 ; criterion: Activity no lower than 10%. Met?
// result Condition met

// query Check the entry COc1ccc(Br)cc1C1=C(Br)C(=O)N(CC(C)C)/C1=C\c1ccc(Br)cc1 : does Activity equal or exceed 10%?
// result Condition met

// query Tell me whether Activity is at least 10% here: COc1ccc(Br)cc1C1=C(Br)C(=O)O/C1=C\c1ccc(Br)cc1
// result Condition not met

----------
# Test system: Enterococcus faecalis
# experiment-description: Antimicrobial activity against Enterococcus faecalis assessed as inhibition of biofilm formation after 20 hrs by crystal violet staining analysis
# Assay type: functional, organism-based
Rule: IC50 below 3 µg/mL gives 1. Equal to or above 3 µg/mL gives 0.

Solved entries:
COc1ccc(Cl)cc1C1=C(Br)C(=O)N(CC(C)C)C1(O)Cc1ccccc1Br (stereo not given) | 1
COc1ccc(C)cc1C1=C(Br)C(=O)O/C1=C\c1cccc(Cl)c1 | 1
COc1ccc(Br)cc1C1=C(Br)C(=O)N(CC(C)C)C1(O)Cc1ccc(Br)cc1 (stereo not given) | 0

# ---- query compound ----
// query Does the reported IC50 of the following compound sit strictly below 3 µg/mL? COc1cccc(CC2(O)C(c3cc(Cl)ccc3OC)=C(Br)C(=O)N2CC(C)C)c1 (stereo not given)
// result 0

----------
# System: Enterococcus faecalis
# experiment-description: Antimicrobial activity against Enterococcus faecalis assessed as bacterial growth at 2.73 ug/ml after 20 hrs by microtiter plate assay
# Assay type: functional
property: Activity (%)
Number only, in %; omit the unit.

Use the examples below as a reference point.
COc1ccc(Br)cc1C1=C(Br)C(=O)N(CC(C)C)/C1=C/c1ccc(Br)cc1 | 20.2
COc1ccc(Cl)cc1C1=C(Br)C(=O)N(CC(C)C)/C1=C/c1ccccc1Br | 33.3
COc1cccc(/C=C2/C(c3cc(Cl)ccc3OC)=C(Br)C(=O)N2CC(C)C)c1 | 29.1
COc1ccc(Cl)cc1C1=C(Br)C(=O)N(CC(C)C)C1(O)Cc1ccccc1Br (stereo not drawn) | 30.2
COc1ccc(Cl)cc1C1=C(Br)C(=O)O/C1=C\c1ccccc1Br | 23.8
COc1ccccc1C1=C(Br)C(=O)N(CC(C)C)/C1=C\c1ccc(C(F)(F)F)cc1 | -6.6
COc1ccccc1C1=C(Br)C(=O)O/C1=C\c1ccc(C(F)(F)F)cc1 | -4.8
COc1ccc(C)cc1C1=C(Br)C(=O)N(CC(C)C)/C1=C\c1ccccc1Cl | 33

// query Identify measured Activity associated with COc1ccc(Br)cc1C1=C(Br)C(=O)N(CC(C)C)/C1=C\c1cccc(Cl)c1
// result 27

// query Tell me Activity reported for COc1ccc(C)cc1C1=C(Br)C(=O)N(CC(C)C)C1(O)Cc1cccc(Cl)c1 (stereo not drawn)
// result 4.8

// query Indicate the recorded Activity value for this compound: COc1ccc(Br)cc1C1=C(Br)C(=O)O/C1=C\c1cccc(Cl)c1
// result 16

// query Determine from records and report Activity for COc1ccccc1C1=C(Br)C(=O)N(CC(C)C)C1(O)Cc1ccc(C(F)(F)F)cc1 (stereo not drawn)
// result 8.4

// query Return Activity (reported value) for this compound: COc1ccc(C)cc1C1=C(Br)C(=O)N(CC(C)C)C1(O)Cc1ccccc1Cl (stereo not drawn)
// result 35.4
